- test_name: Plasma pharmacokinetics of SHR9146 in mice (LC-MS/MS, non-compartmental analysis)
- Type: in vivo, ICR mice
- assay_setup: both sexes, ICR, mouse, plasma, oral, 20 mg/kg, 20 mg/kg i.g. bid, 7 days; 7th day, 0.5 h; read-out: plasma drug concentration, mean (n=6)

compound | concentration at 0.5 h, ng/mL
OCCn1cc(-c2ccc(N3CCC([C@H]4c5c(F)cccc5-c5cncn54)CC3)cc2)cn1 [SHR9146] | 8020

====

- test_name: Tissue distribution of SHR9146 in mice after oral gavage of 40 mg/kg
- Format: in vivo, ICR mice
- assay_setup: male, ICR, mouse, thyroid gland, po, 40 mg/kg, male, 3 h, 40 mg/kg oral gavage, Mean (n=3); read-out: SHR9146 concentration in thyroid gland
quantity: concentration at 3 h

compound | measured
OCCn1cc(-c2ccc(N3CCC([C@H]4c5c(F)cccc5-c5cncn54)CC3)cc2)cn1 [SHR9146] | 2730 ng/g
